The values you see were collected from the RNAGym collection of RNA variant scans (doi:10.7554/elife.90254).

B1: LINE1-mini (parent)
chain: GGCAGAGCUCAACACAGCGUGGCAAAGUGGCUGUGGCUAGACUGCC

- Variants of: B1
- ASSAY OVERVIEW: self-cleavage, relative activity (ratio to wild type); higher = more cleavage; in vitro, sequencing; the parent is a self-cleaving ribozyme
READOUT TYPE: self-cleavage

RESIDUE CHANGE: G1C U34A
RESULT: 0.01

RESIDUE CHANGE: U20C U28G
RESULT: 0.93

RESIDUE CHANGE: G30U C42G
RESULT: 0.05

RESIDUE CHANGE: A12C G44A
RESULT: 0.03

RESIDUE CHANGE: C13U C15U
RESULT: 0.13

RESIDUE CHANGE: A11C G33U
RESULT: 0.04

RESIDUE CHANGE: C18G G27C
RESULT: 0.38

RESIDUE CHANGE: U20A C42U
RESULT: 0.12

RESIDUE CHANGE: G22C C37G
RESULT: 0.05

RESIDUE CHANGE: G27A U38G
RESULT: 0.02

RESIDUE CHANGE: G1A U34A
RESULT: 0.08

RESIDUE CHANGE: C3U G33U
RESULT: 0.1

RESIDUE CHANGE: G21U G27U
RESULT: 0.54

RESIDUE CHANGE: G2C C31A
RESULT: 0.07

RESIDUE CHANGE: G19A C37G
RESULT: 0.03

RESIDUE CHANGE: G30U U43G
RESULT: 0.2

RESIDUE CHANGE: C18A G40C
RESULT: 0.03

RESIDUE CHANGE: C8G U43G
RESULT: 0.88

RESIDUE CHANGE: C8U U34C
RESULT: 0.18

RESIDUE CHANGE: C18G C23A
RESULT: 0.64

RESIDUE CHANGE: G29A C46U
RESULT: 0.82

RESIDUE CHANGE: A12U C45G
RESULT: 0.08

RESIDUE CHANGE: G40A C42U
RESULT: 0.09

RESIDUE CHANGE: G35C C46G
RESULT: 0.06

RESIDUE CHANGE: G7A A24G
RESULT: 0.16

RESIDUE CHANGE: C18G G21U
RESULT: 1.38

RESIDUE CHANGE: A11C A41U
RESULT: 0.04

RESIDUE CHANGE: G2A C8G
RESULT: 0.13

RESIDUE CHANGE: G30C C45G
RESULT: 0.21

RESIDUE CHANGE: C3U U28C
RESULT: 0.24

RESIDUE CHANGE: C10A G29U
RESULT: 0.04

RESIDUE CHANGE: C13A G30C
RESULT: 0.14

RESIDUE CHANGE: C13G C37G
RESULT: 0.04

RESIDUE CHANGE: U20G G35U
RESULT: 0.12

RESIDUE CHANGE: G27A U28C
RESULT: 0.87

RESIDUE CHANGE: C31A U34G
RESULT: 0.02

RESIDUE CHANGE: G5A G17A
RESULT: 0.08

RESIDUE CHANGE: A14U G33A
RESULT: 0.08

RESIDUE CHANGE: G5A C45A
RESULT: 0.22

RESIDUE CHANGE: G29A U43A
RESULT: 0.16

RESIDUE CHANGE: G1C G2U
RESULT: 0.08

RESIDUE CHANGE: U9C C13U
RESULT: 0.03

RESIDUE CHANGE: U9G C42U
RESULT: 0.05

RESIDUE CHANGE: G7U C15U
RESULT: 0.1

RESIDUE CHANGE: U28C A39U
RESULT: 1

RESIDUE CHANGE: G19A A39U
RESULT: 1.35

RESIDUE CHANGE: U9G U38G
RESULT: 0.01

RESIDUE CHANGE: A14C U28A
RESULT: 0.03

RESIDUE CHANGE: A25C U43G
RESULT: 0.12

RESIDUE CHANGE: A39U G40C
RESULT: 0.18

RESIDUE CHANGE: C3A A39C
RESULT: 0.11

RESIDUE CHANGE: G30U G44C
RESULT: 0.16

RESIDUE CHANGE: U34A C45A
RESULT: 0.08

RESIDUE CHANGE: C15A U32G
RESULT: 0.06

RESIDUE CHANGE: A24C G40U
RESULT: 0.11

RESIDUE CHANGE: G2A A6C
RESULT: 0.33

RESIDUE CHANGE: A26U G30U
RESULT: 1.25

RESIDUE CHANGE: G5U U28C
RESULT: 0.09

RESIDUE CHANGE: C3G G29U
RESULT: 0.55

RESIDUE CHANGE: C23A A39U
RESULT: 0.73

RESIDUE CHANGE: G22C A25G
RESULT: 1.07

RESIDUE CHANGE: G7C A14C
RESULT: 0.23

RESIDUE CHANGE: G29A G40A
RESULT: 0.11

RESIDUE CHANGE: A24C G44C
RESULT: 0.47

RESIDUE CHANGE: G35C A41C
RESULT: 0.06

RESIDUE CHANGE: A16U U28G
RESULT: 0.22

RESIDUE CHANGE: G30C G36A
RESULT: 0.1

RESIDUE CHANGE: A6G G40U
RESULT: 0.1

RESIDUE CHANGE: A4G G17U
RESULT: 0.18

RESIDUE CHANGE: G1U C46A
RESULT: 0.53

RESIDUE CHANGE: A11U A41C
RESULT: 0.04

RESIDUE CHANGE: A4U U20A
RESULT: 0.12

RESIDUE CHANGE: G19U G21U
RESULT: 0.58

RESIDUE CHANGE: G1A U38G
RESULT: 0.03

RESIDUE CHANGE: C23G U28C
RESULT: 0.66

RESIDUE CHANGE: G22C A39G
RESULT: 0.09

RESIDUE CHANGE: C10A U20C
RESULT: 0.06

RESIDUE CHANGE: C3A G27A
RESULT: 0.31

RESIDUE CHANGE: C8G G44A
RESULT: 0.04

RESIDUE CHANGE: G17A G19U
RESULT: 0.25

RESIDUE CHANGE: C13G G33U
RESULT: 0.03

RESIDUE CHANGE: C18A U43G
RESULT: 0.26

RESIDUE CHANGE: C13G G21C
RESULT: 0.33

RESIDUE CHANGE: G30C C42U
RESULT: 0.18

RESIDUE CHANGE: G17C C45A
RESULT: 0.16

RESIDUE CHANGE: G2C A24U
RESULT: 0.15

RESIDUE CHANGE: G22A U28A
RESULT: 0.4

RESIDUE CHANGE: C3A G22U
RESULT: 0.71

RESIDUE CHANGE: A24G A25U
RESULT: 1.3

RESIDUE CHANGE: G36C G40A
RESULT: 0.09

RESIDUE CHANGE: C18A G27C
RESULT: 0.62
